The values you see were collected from the supplement of paper PMC10567573.

B1: RTN1 (parent)
chain: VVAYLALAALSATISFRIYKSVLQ

Variants of: B1
ASSAY_SUMMARY: protein stability index of a GFP-peptide fusion (GPS, HEK-293T) (PSI 1-6); higher = more stable;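 also: lentivirally expressed fusions sorted by FACS into six bins by GFP to DsRed ratio, PSI derived from sequencing read proportions per bin multiplied by bin number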
MEASUREMENT_SETUP: c terminus: a fixed tail appended
RESULT_TYPE: protein stability index
Respond using a number only.

// solved cases for protein stability index follow
>>> recorded_value("A6I")
1.91
>>> recorded_value("A8S")
1.95
>>> recorded_value("Q24C")
2.5

-- ask Let me know recorded protein stability index for `L23A` , thanks.
-- reply 2.28

-- ask Let me know recorded protein stability index for `S11D` , thanks.
-- reply 3.61

-- ask Let me know recorded protein stability index for `I18A` , thanks.
-- reply 1.05

-- ask Let me know recorded protein stability index for `L7R` , thanks.
-- reply 2.26
